Reference source for all entries: ChEMBL document CHEMBL2163333

// reported IC50 per item
SYSTEM_UNDER_TEST: UniProtKB P19099
Sequence (P19099 whole entry): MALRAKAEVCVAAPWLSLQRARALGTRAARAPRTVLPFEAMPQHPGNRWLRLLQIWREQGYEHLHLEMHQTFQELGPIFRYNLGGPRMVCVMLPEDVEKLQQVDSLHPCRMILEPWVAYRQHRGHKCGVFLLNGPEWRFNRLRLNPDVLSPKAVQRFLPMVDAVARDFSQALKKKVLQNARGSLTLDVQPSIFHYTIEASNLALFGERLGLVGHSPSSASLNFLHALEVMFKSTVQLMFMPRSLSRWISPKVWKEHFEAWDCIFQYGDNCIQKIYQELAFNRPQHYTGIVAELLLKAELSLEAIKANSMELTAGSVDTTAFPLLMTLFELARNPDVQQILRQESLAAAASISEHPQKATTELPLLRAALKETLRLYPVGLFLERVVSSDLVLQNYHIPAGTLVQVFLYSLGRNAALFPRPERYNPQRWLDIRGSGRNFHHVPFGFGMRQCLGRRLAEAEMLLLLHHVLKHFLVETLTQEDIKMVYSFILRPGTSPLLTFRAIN
METHOD: Inhibition of human CYP11B2 expressed in hamster V79 MZh cells using deoxycorticosterone substrate

{"columns": ["COMPOUND", "IC50"],
 "data": [
  ["O=C1CCc2cc(C(c3cccs3)n3ccnc3)cc3c2N1CC3 (stereo not given)", "18 nM"],
  ["O=C1CCc2cc(C(c3ccccc3F)n3ccnc3)cc3c2N1CC3 (stereo not given)", "19 nM"],
  ["COc1ccc(C(c2cc3c4c(c2)CCN4C(=O)CC3)n2ccnc2)cc1 (stereo not given)", "104 nM"],
  ["COc1cccc(C(c2cc3c4c(c2)CCN4C(=O)CC3)n2ccnc2)c1 (stereo not given)", "88 nM"],
  ["C=C(c1cc2c3c(c1)CCN3C(=O)CC2)n1ccnc1", "100 nM"]
]}
